Where do the numbers come from? From PubChem BioAssay (NCI).

tested on: T-47D breast; assay: NCI-60 one-dose screen, 48 h; conditions: 10 µM unless noted
This is part of a sample that, as a whole, favours compounds with a hit. Of some 83,000 tested, about 20% had one in any assay. Activity calls are given as the source filed them. The calls were made as follows: active = growth percent below 10; inactive = the rest.
Response enum: active, inactive

Name the outcome recorded for CC(=O)O[C@H]1CC2CCC3C(CC[C@@]4(C)C3C[C@H]([N+]3(C)CCCCC3)[C@@H]4OC(C)=O)[C@@]2(C)C[C@@H]1N1CCCCC1 (stereo partly specified) in the assay.
inactive

Name the outcome recorded for CN1CCc2nc3sc(C(N)=O)c(N)c3c(-c3cccs3)c2C1 in the assay.
inactive

Name the outcome recorded for CCCCNCCCCCNc1cc(OC)cc2cccnc12 in the assay.
inactive

Name the outcome recorded for COc1ccccc1NC(=O)N=Nc1c(O)[nH]c2ccccc12 in the assay.
inactive

Name the outcome recorded for N#CSc1c[nH]c2cccc(/C=C/C(=O)/C=C(/C=C/c3cccc4[nH]cc(SC#N)c34)OB(F)F)c12 in the assay.
active

Name the outcome recorded for CCCCCCCC[C@@H]1N[C@@H](C(=O)OC)Cc2c1[nH]c1ccccc21 in the assay.
inactive

Name the outcome recorded for COc1ccc2c(c1)CC[C@H](O)/C2=C/c1cc(OC)c(OC)c(OC)c1 in the assay.
inactive

Name the outcome recorded for N#CSCC1CC(O)(c2ccccc2)CC(c2ccc(F)cc2)O1 (stereo unspecified) in the assay.
inactive

Name the outcome recorded for C=CCc1c(O)c(C(=O)/C=C/c2ccccc2)c(OC)c2ccoc12 in the assay.
inactive

Name the outcome recorded for C=CCSc1nnc(NC(=O)CCl)s1 in the assay.
inactive

Name the outcome recorded for C#CCOC(=O)/C=C/c1cn(-c2ccccc2)nc1-c1ccc(OC)cc1 in the assay.
inactive

Name the outcome recorded for COCCn1cc(-c2csc(-c3cn(C)c4ccc(Br)cc34)n2)c2cccnc21 in the assay.
inactive

Name the outcome recorded for COC1=CC(c2ccc[nH]2)=N/C1=C\c1[nH]c(C)c(CC(=O)NCc2ccccc2)c1C in the assay.
inactive

Name the outcome recorded for CC(C)=CCC[C@](C)(O)[C@H]1CC[C@]2(C)[C@@H]1CC[C@@H]1[C@@]3(C)C/C(=C/c4ccco4)C(=O)C(C)(C)[C@@H]3CC[C@]12C in the assay.
inactive

Name the outcome recorded for COC12C=C/C(=C(/C(=O)OCc3ccncc3)C(=O)CCCCCCCCC3(OC)C=C/C(=C(/C(=O)OCc4ccncc4)C(=O)CCCCCCCC1)O3)O2 in the assay.
active

Name the outcome recorded for CCC(C(=O)[C@@H](C)[C@@H](O)[C@H](C)[C@@H]1O[C@@H]([C@@H](CC)C(=O)ONC(=O)c2ccccc2)CC[C@@H]1C)[C@H]1O[C@]2(C=CC(=O)[C@]3(CC[C@@](C)([C@H]4CC[C@](O)(CC)[C@H](C)O4)O3)O2)[C@H](C)C[C@@H]1C (stereo partly specified) in the assay.
inactive

Name the outcome recorded for COc1ccc(/C=N\Nc2nc(SCCC(C)C)nc(-c3ccc(OC)cc3)c2C#N)cc1 in the assay.
inactive

Name the outcome recorded for O=C(/C=C/c1cccc(Cl)c1)c1ccc(Nc2nc(Nc3ccc(F)cc3)nc(Nc3ccc(Cl)cc3)n2)cc1 in the assay.
inactive

Name the outcome recorded for CCCCC1=C(P(=O)(O)O)N[C@H](C(=O)O)CS1 in the assay.
inactive

Name the outcome recorded for O=C(Nn1c2c(sc1=NC1CC1)C(=O)c1ccccc1C2=O)c1cc2ccc1CCc1ccc(cc1)CC2 in the assay.
inactive

Name the outcome recorded for O=C(N/N=C/c1c(Cl)cccc1Cl)c1cccnc1Nc1cccc(C(F)(F)F)c1 in the assay.
inactive
